molecules and their reported Ki
target-or-test-system: human 5-HT6 receptor (Homo sapiens (Human))
Sequence (P50406 whole entry): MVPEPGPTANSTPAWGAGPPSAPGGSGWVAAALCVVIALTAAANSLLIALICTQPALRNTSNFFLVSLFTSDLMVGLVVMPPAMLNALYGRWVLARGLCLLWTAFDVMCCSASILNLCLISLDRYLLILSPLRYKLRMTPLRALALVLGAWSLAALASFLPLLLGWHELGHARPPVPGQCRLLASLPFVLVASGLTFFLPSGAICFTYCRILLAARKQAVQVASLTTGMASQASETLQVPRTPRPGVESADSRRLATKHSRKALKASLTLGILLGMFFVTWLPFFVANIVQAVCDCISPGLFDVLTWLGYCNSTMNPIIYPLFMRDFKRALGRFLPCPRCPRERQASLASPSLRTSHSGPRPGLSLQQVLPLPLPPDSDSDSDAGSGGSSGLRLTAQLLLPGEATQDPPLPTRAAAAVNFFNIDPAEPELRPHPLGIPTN
experiment: radioligand binding assay (SPA format), [N-methyl-3H]-LSD
condition-label: read-out: human 5HT6 Ki; human 5-HT6 receptor membranes, 10 nM [3H]-LSD
Answer format: numeric, nM implied, no suffix.

Here's what some known entries look like.
Cn1c2c(c3cc(S(=O)(=O)c4cccc(Cl)c4)ccc31)C1CCC(C2)N1 (stereo not drawn) [Example 157]
2.7
CN(C)C(=O)COc1cc(S(=O)(=O)c2ccccc2)cc2c3c(n(C)c12)CC1CCC3N1 (stereo not drawn)
581
Cn1c2c(c3cc(S(=O)(=O)c4cnc5[nH]ccc5c4)ccc31)C1CCC(C2)N1 (stereo not drawn)
2.9
Cn1c2c(c3cc(S(=O)(=O)c4ccccc4)cc(OCc4cccnc4)c31)C1CCC(C2)N1 (stereo not drawn)
129

Exercise: Report Ki for COc1cc(S(=O)(=O)c2cn(C)c3ccccc23)cc2c3c(n(C)c12)CC1CCC3N1 (stereo not drawn) [Example 223] please.
Solution: 2.4

Exercise: Data request, read-out Ki, for Cl.Cn1c2c(c3cc(S(=O)(=O)c4ccc(Cl)cc4)ccc31)C1CCC(C2)N1 (stereo not drawn) [Example 51, hydrochloride]
Solution: 37

Exercise: Data request, read-out Ki, for Cn1c2c(c3cc(S(=O)(=O)c4ccccc4)cc(C#N)c31)C1CCC(C2)N1 (stereo not drawn)
Solution: 115

Exercise: Fill in: Ki of Cc1cc(S(=O)(=O)c2ccc(N)cc2)cc2c3c(n(C)c12)CC1CCC3N1.Cl (stereo not drawn) [Example 77, hydrochloride] is ___
Solution: 4.9

Exercise: Any idea what its Ki is? The molecule is COc1ccc(S(=O)(=O)c2ccc3c(c2)c2c(n3C)CC3CCC2N3)cc1.Cl (stereo not drawn) [Example 31, hydrochloride]
Solution: 44
